Kindly state pIC50 for each of the entries shown.
system: human HPK1 (MAP4K1) (Homo sapiens (Human))
protocol-details: HPK1 IC50 Assay (TR-FRET biochemical kinase assay, STK S1 peptide substrate)
conditions-used: recombinant human HPK1 kinase domain 0.15 nM, 10 μM ATP, 1 μM STK S1 peptide; geometric mean of multiple experiments
Answers are plain numbers, as −log10 of the molar value.

Before answering, review these 2 worked examples.
molecule	pIC50
CC(C)n1cnc2cc(-c3ccc4c(c3)N([C@H]3C[C@@H](N5CCCCC5)C3)C(=O)C43CCN(C(=O)C4(C)CCO4)CC3)nc(Nc3ccncc3F)c21 (some centres unmarked)	9.70
CC(C)n1cnc2cc(-c3ccc4c(c3)N([C@H]3C[C@@H](N5CCC(C(F)F)C5)C3)C(=O)C43CCN(C4COC4)CC3)nc(Nc3ccncc3F)c21 (some centres unmarked)	8.82

I would be grateful if you could provide pIC50 for each of the following entries.
1. CC(C)n1cnc2cc(-c3ccc4c(c3)N([C@H]3C[C@@H](N5C[C@@H](C)[C@@H](C)C5)C3)C(=O)C43CCN(C(=O)C(C)(C)CO)CC3)nc(Nc3ccncc3F)c21
2. CC(C)n1cnc2cc(-c3ccc4c(c3)N([C@H]3C[C@@H](N5CCC(C)(C)C5)C3)C(=O)C43CCN(C(=O)C4(C)COC4)CC3)nc(Nc3ccncc3F)c21
3. CC(C)n1cnc2cc(-c3ccc4c(c3)N([C@H]3C[C@@H](N5CCCCC5)C3)C(=O)C43CCN(C4COC4)CC3)nc(Nc3cc(F)ncc3F)c21
4. CNC(=O)c1cc(Nc2nc(-c3ccc4c(c3)N([C@H]3C[C@@H](N5CCCCC5)C3)C(=O)C4(C)C)cc3ncn(C(C)C)c23)c(F)cn1
5. CC(C)n1cnc2cc(-c3ccc4c(c3)N([C@H]3C[C@@H](N5CC[C@H](F)C5)C3)C(=O)C43CCN(C4COC4)CC3)nc(Nc3ccncc3F)c21
6. CC(C)n1cnc2cc(-c3ccc4c(c3)N([C@H]3C[C@@H](N5CCC(C)(C)C5)C3)C(=O)C43CCN(C4COC4)CC3)nc(Nc3ccncc3F)c21

1: 10.30; 2: 9.40; 3: 8.72; 4: 8.09; 5: 8.96; 6: 9.40

I would be grateful if you could provide pIC50 for each of the following entries.
1. CC(C)n1cnc2cc(-c3ccc4c(c3)N([C@H]3C[C@@H](N5CCCC(C)(C)C5)C3)C(=O)C43CCN(C4COC4)CC3)nc(Nc3ccncc3F)c21
2. CC(C)n1cnc2cc(-c3ccc4c(c3)N([C@H]3C[C@@H](N5CCC(F)CC5)C3)C(=O)C43CCN(C4COC4)CC3)nc(Nc3ccncc3F)c21
3. CC(C)n1cnc2cc(-c3ccc4c(c3)N([C@H]3C[C@@H](N5CCCCC5)C3)C(=O)C43CCN(C(=O)C4(C)CCOCC4)CC3)nc(Nc3ccncc3F)c21

9.70
8.96
9.22

====

Kindly state pIC50 for each of the entries shown.
system: human HPK1 (MAP4K1) (Homo sapiens (Human))
protocol-details: HPK1 IC50 Assay (TR-FRET biochemical kinase assay, STK S1 peptide substrate)
conditions-used: recombinant human HPK1 kinase domain 0.15 nM, 10 μM ATP, 1 μM STK S1 peptide; geometric mean of multiple experiments
Answers are plain numbers, as −log10 of the molar value.

Before answering, review these 6 worked examples.
compound	pIC50
CC(C)n1cnc2cc(-c3ccc4c(c3)N([C@H]3C[C@@H](N5CCCCC5)C3)C(=O)C43CCN(C(=O)C4CCO4)CC3)nc(Nc3ccncc3F)c21 (some centres unmarked) [Example 22]	9.52
CC(C)n1cnc2cc(-c3ccc4c(c3)N([C@H]3C[C@@H](N5CCC(C)(C)C5)C3)C(=O)C43CCN(C(=O)[C@H]4CCO4)CC3)nc(Nc3ccncc3F)c21 (single isomer, unassigned) [Example 78B]	9.52
CC(C)n1cnc2cc(-c3ccc4c(c3)N([C@H]3C[C@@H](N5CCCCC5)C3)C(=O)C4(C)C)nc(Nc3ccnc(F)c3F)c21 [Example 94]	9.52
CC[C@H](C)n1cnc2cc(-c3ccc4c(c3)N([C@H]3C[C@@H](N5CCCCC5)C3)C(=O)C43CCN(C(C)=O)CC3)nc(Nc3ccncc3F)c21 [Example 72]	9.15
CC(C)n1cnc2cc(-c3ccc4c(c3)N([C@H]3C[C@@H](N5CCC[C@@H](C)C5)C3)C(=O)C43CCN(C4COC4)CC3)nc(Nc3ccncc3F)c21 [Example 41]	9.22
CC(=O)N1CCC2(CC1)C(=O)N([C@H]1C[C@@H](N3CCC[C@@H](C)C3)C1)c1cc(-c3cc4ncn(C(C)C)c4c(Nc4ccncc4F)n3)ccc12 [Example 32]	9.22

I would be grateful if you could provide pIC50 for each of the following entries.
1. CC[C@H](C)n1cnc2cc(-c3ccc4c(c3)N([C@H]3C[C@@H](N5CCCCC5)C3)C(=O)C43CCN(C4COC4)CC3)nc(Nc3ccncc3F)c21 [Example 89]
2. CC(C)n1cnc2cc(-c3ccc4c(c3)N([C@H]3C[C@@H](N5CC6CC(C6)C5)C3)C(=O)C43CCN(C(=O)C4(C)COC4)CC3)nc(Nc3ccncc3F)c21 [Example 7]

[9.30, 9.70]

====

system: human HPK1 (MAP4K1) (Homo sapiens (Human), UniProt Q92918)
Sequence (Q92918 17-274): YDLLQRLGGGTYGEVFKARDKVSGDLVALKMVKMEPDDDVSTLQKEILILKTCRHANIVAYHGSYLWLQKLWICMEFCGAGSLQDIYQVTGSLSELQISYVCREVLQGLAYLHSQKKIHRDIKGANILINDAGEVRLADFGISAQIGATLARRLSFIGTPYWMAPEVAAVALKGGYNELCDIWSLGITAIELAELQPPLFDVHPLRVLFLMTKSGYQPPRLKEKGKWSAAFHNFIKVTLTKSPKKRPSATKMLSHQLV
protocol-details: HPK1 IC50 Assay (TR-FRET biochemical kinase assay, STK S1 peptide substrate)
conditions-used: recombinant human HPK1 kinase domain 0.15 nM, 10 μM ATP, 1 μM STK S1 peptide; geometric mean
endpoint-label: pIC50
Answers are plain numbers, as −log10 of the molar value.

> print(dat)
                                test.smiles  number
1  CC(C)n1cnc2cc(-c3ccc4c(c3)N([C@H]3C[C@@H](N5CCC(C)(C)C5)C3)C(=O)C43CCN(C(=O)c4ncon4)CC3)nc(Nc3ccncc3F)c21    9.40
2  CC(C)n1cnc2cc(-c3ccc4c(c3)N([C@H]3C[C@@H](N5CCC(C)(C)C5)C3)C(=O)C43CCN(C(=O)C4(CO)CC4)CC3)nc(Nc3ccncc3F)c21    9.40
3  CC(C)n1cnc2cc(-c3ccc4c(c3)N([C@H]3C[C@@H](N5CCCCC5)C3)C(=O)C43CCN(C(=O)C4(C)COC4)CC3)nc(Nc3ccncc3F)c21    9.40
4  CC(C)n1cnc2cc(-c3ccc4c(c3)N([C@H]3C[C@@H](N5CCC(C)(C)C5)C3)C(=O)C43CCN(C(=O)[C@@H](C)O)CC3)nc(Nc3ccncc3F)c21    9.30

Measured pIC50, CO[C@H]1C[C@@H](C(=O)N2CCC3(CC2)C(=O)N([C@H]2C[C@@H](N4CCCCC4)C2)c2cc(-c4cc5ncn(C(C)C)c5c(Nc5ccncc5F)n4)ccc23)C1 : 9.30

====

Kindly state pIC50 for each of the entries shown.
system: human HPK1 (MAP4K1) (Homo sapiens (Human), UniProt Q92918)
protocol-details: HPK1 IC50 Assay (TR-FRET biochemical kinase assay, STK S1 peptide substrate)
conditions-used: recombinant human HPK1 kinase domain 0.15 nM, 10 μM ATP, 1 μM STK S1 peptide; geometric mean
Give bare numbers, as −log10 of the molar value.

Before answering, review these 4 worked examples.
compound	pIC50
COCC(C)(C)C(=O)N1CCC2(CC1)C(=O)N([C@H]1C[C@@H](N3CCCCC3)C1)c1cc(-c3cc4ncn(C(C)C)c4c(Nc4ccncc4F)n3)ccc12	9.52
CC(=O)N1CCC2(CC1)C(=O)N([C@H]1C[C@@H](N3CC4CC4(C)C3)C1)c1cc(-c3cc4ncn(C(C)C)c4c(Nc4ccncc4F)n3)ccc12 (stereo partly drawn)	9.70
CC(C)n1cnc2cc(-c3ccc4c(c3)N([C@H]3C[C@@H](N5CC6CCC(C6)C5)C3)C(=O)C43CCN(C(=O)C4(C)COC4)CC3)nc(Nc3ccncc3F)c21	10.00
CC(C)n1cnc2cc(-c3ccc4c(c3)N([C@H]3C[C@@H](N5CC6CCC(C6)C5)C3)C(=O)C43CCN(C(=O)C4CCO4)CC3)nc(Nc3ccncc3F)c21 (stereo partly drawn)	10.40

I would be grateful if you could provide pIC50 for each of the following entries.
1. CC(C)n1cnc2cc(-c3ccc4c(c3)N([C@H]3C[C@@H](N5CCC(C)(C)C5)C3)C(=O)C43CCN(C(=O)C4(C)COC4)CC3)nc(Nc3ccc(F)nc3F)c21
2. CCC1(C(=O)N2CCC3(CC2)C(=O)N([C@H]2C[C@@H](N4CCCCC4)C2)c2cc(-c4cc5ncn(C(C)C)c5c(Nc5ccncc5F)n4)ccc23)COC1
3. CC(C)n1cnc2cc(-c3ccc4c(c3)N([C@H]3C[C@@H](N5CCCC(C)(C)C5)C3)C(=O)C43CCN(C(=O)C4CCO4)CC3)nc(Nc3ccncc3F)c21 (stereo partly drawn)
4. CC(=O)N1CCC2(CC1)C(=O)N([C@H]1C[C@@H](N3CC4CCC3CC4)C1)c1cc(-c3cc4ncn(C(C)C)c4c(Nc4ccncc4F)n3)ccc12
5. CCC(=O)N1CCC2(CC1)C(=O)N([C@H]1C[C@@H](N3CCCCC3)C1)c1cc(-c3cc4ncn(C(C)C)c4c(Nc4ccncc4F)n3)ccc12

[10.22, 9.70, 9.70, 9.52, 9.40]

Ref: patent US11071730B2
